We begin with a simple list: items and their reported hemolysis at 1 h, 0.78 µM.
# Protocol Notes: Hemolytic activity against human RBC at 0.78 uM after 1 hr by Drabkin's assay relative to control
# Assay type: ADME, cell-based, Erythrocyte
# Test Conditions: human red blood cells (erythrocytes), read-out: Activity

Smiles Representation	hemolysis at 1 h, 0.78 µM (%)
CC(C)(C)OC(=O)[C@@H]1CCCN1C(=O)N1CCCN1C(=O)[C@@H]1CCCN1C(=O)N1CCCN1C(=O)[C@@H]1CCCN1C(=O)N1CCCN1C(=O)[C@@H]1CCCN1C(=O)N1CCCN1C(=O)OCc1ccccc1	0
CC(C)(C)OC(=O)N1CCC[C@H]1C(=O)N1CCCN1C(=O)N1CCC[C@H]1C(=O)N1CCCN1C(=O)N1CCC[C@H]1C(=O)N1CCCN1C(=O)N1CCC[C@H]1C(=O)N1CCCN1C(=O)OCc1ccccc1	0.189
O=CN1CCCN1C(=O)N1CCC[C@H]1C(=O)N1CCCN1C(=O)N1CCC[C@H]1C(=O)N1CCCN1C(=O)N1CCC[C@H]1C(=O)N1CCCN1C(=O)N1CCC[C@H]1C(=O)N1CCCN1C(=O)N1CCC[C@H]1C(=O)N1CCCN1C(=O)N1CCC[C@H]1C(=O)N1CCCN1C(=O)N1CCC[C@H]1C(=O)NCCO	0.072
O=CN1CCCN1C(=O)N1CCC[C@H]1C(=O)N1CCCN1C(=O)N1CCC[C@H]1C(=O)N1CCCN1C(=O)N1CCC[C@H]1C(=O)N1CCCN1C(=O)N1CCC[C@H]1C(=O)N1CCCN1C(=O)N1CCC[C@H]1C(=O)NCCO	0.08

* * *

# Protocol Notes: Hemolytic activity against human RBC at 12.5 uM after 1 hr by Drabkin's assay relative to control
# Format: ADME, cell-based, Erythrocyte
# Test Conditions: human red blood cells (erythrocytes), read-out: Activity
hemolysis at 1 h, 12.5 µM values, listed per item
Property Label: hemolysis at 1 h, 12.5 µM (%)

Smiles Representation	Display Unit	Test Result
CC(C)(C)OC(=O)[C@@H]1CCCN1C(=O)N1CCCN1C(=O)[C@@H]1CCCN1C(=O)N1CCCN1C(=O)[C@@H]1CCCN1C(=O)N1CCCN1C(=O)[C@@H]1CCCN1C(=O)N1CCCN1C(=O)OCc1ccccc1	%	-0.09
O=C(O)[C@@H]1CCCN1C(=O)N1CCCN1C(=O)[C@@H]1CCCN1C(=O)N1CCCN1C(=O)[C@@H]1CCCN1C(=O)N1CCCN1C(=O)[C@@H]1CCCN1C(=O)N1CCCN1C(=O)OCc1ccccc1	%	0.09
O=CN1CCCN1C(=O)N1CCC[C@H]1C(=O)N1CCCN1C(=O)N1CCC[C@H]1C(=O)N1CCCN1C(=O)N1CCC[C@H]1C(=O)N1CCCN1C(=O)N1CCC[C@H]1C(=O)N1CCCN1C(=O)N1CCC[C@H]1C(=O)N1CCCN1C(=O)N1CCC[C@H]1C(=O)NCCO	%	-0.452

* * *

# inhibition of growth at 32 µg/mL annotations
# System: Staphylococcus aureus
# Protocol Notes: Growth inhibition of methicillin-resistant Staphylococcus aureus ATCC 43300 at 32 ug/ml after 18 hrs
# Assay type: functional
# Test Conditions: ATCC 43300, 18 h, read-out: GI

Smiles Representation	Target Under Test	inhibition of growth at 32 µg/mL (%)
O=CN1CCCN1C(=O)N1CCC[C@H]1C(=O)N1CCCN1C(=O)N1CCC[C@H]1C(=O)N1CCCN1C(=O)N1CCC[C@H]1C(=O)N1CCCN1C(=O)N1CCC[C@H]1C(=O)N1CCCN1C(=O)N1CCC[C@H]1C(=O)N1CCCN1C(=O)N1CCC[C@H]1C(=O)NCCO	Staphylococcus aureus	1.36
CC(=O)N1CCCN1C(=O)N1CCC[C@H]1C(=O)N1CCCN1C(=O)N1CCC[C@H]1C(=O)N1CCCN1C(=O)N1CCC[C@H]1C(=O)N1CCCN1C(=O)N1CCC[C@H]1C(=O)N1CCCN1C(=O)N1CCC[C@H]1C(=O)N1CCCN1C(=O)N1CCC[C@H]1C(=O)N1CCCN1C(=O)N1CCC[C@H]1C(=O)N1CCCN1C(=O)N1CCC[C@H]1C(=O)NCCO	Staphylococcus aureus	16.5
CC(C)(C)OC(=O)N1CCC[C@H]1C(=O)N1CCCN1C(=O)N1CCC[C@H]1C(=O)N1CCCN1C(=O)N1CCC[C@H]1C(=O)N1CCCN1C(=O)N1CCC[C@H]1C(=O)N1CCCN1	Staphylococcus aureus	28.3
O=C(NCCO)[C@@H]1CCCN1C(=O)N1CCCN1C(=O)[C@@H]1CCCN1C(=O)N1CCCN1C(=O)[C@@H]1CCCN1C(=O)N1CCCN1C(=O)[C@@H]1CCCN1C(=O)N1CCCN1C(=O)[C@@H]1CCCN1C(=O)N1CCCN1C(=O)[C@@H]1CCCN1C(=O)N1CCCN1C(=O)[C@@H]1CCCN1C(=O)N1CCCN1C(=O)[C@@H]1CCCN1C(=O)N1CCCN1C(=O)OCc1ccccc1	Staphylococcus aureus	11.8
O=CN1CCCN1C(=O)N1CCC[C@H]1C(=O)N1CCCN1C(=O)N1CCC[C@H]1C(=O)N1CCCN1C(=O)N1CCC[C@H]1C(=O)N1CCCN1C(=O)N1CCC[C@H]1C(=O)N1CCCN1C(=O)N1CCC[C@H]1C(=O)N1CCCN1C(=O)N1CCC[C@H]1C(=O)N1CCCN1C(=O)N1CCC[C@H]1C(=O)N1CCCN1C(=O)N1CCC[C@H]1C(=O)NCCO	Staphylococcus aureus	16.5
O=C(O)[C@@H]1CCCN1C(=O)N1CCCN1C(=O)[C@@H]1CCCN1C(=O)N1CCCN1C(=O)[C@@H]1CCCN1C(=O)N1CCCN1C(=O)[C@@H]1CCCN1C(=O)N1CCCN1C(=O)OCc1ccccc1	Staphylococcus aureus	27
CC(C)(C)OC(=O)N1CCC[C@H]1C(=O)N1CCCN1C(=O)N1CCC[C@H]1C(=O)N1CCCN1C(=O)N1CCC[C@H]1C(=O)N1CCCN1C(=O)N1CCC[C@H]1C(=O)N1CCCN1C(=O)N1CCC[C@H]1C(=O)N1CCCN1C(=O)N1CCC[C@H]1C(=O)N1CCCN1C(=O)N1CCC[C@H]1C(=O)N1CCCN1C(=O)N1CCC[C@H]1C(=O)N1CCCN1C(=O)OCc1ccccc1	Staphylococcus aureus	20.7
CC(C)(C)OC(=O)[C@@H]1CCCN1C(=O)N1CCCN1C(=O)[C@@H]1CCCN1C(=O)N1CCCN1C(=O)[C@@H]1CCCN1C(=O)N1CCCN1C(=O)[C@@H]1CCCN1C(=O)N1CCCN1	Staphylococcus aureus	5.04
CC(C)(C)OC(=O)[C@@H]1CCCN1C(=O)N1CCCN1C(=O)[C@@H]1CCCN1C(=O)N1CCCN1C(=O)[C@@H]1CCCN1C(=O)N1CCCN1C(=O)[C@@H]1CCCN1C(=O)N1CCCN1C(=O)OCc1ccccc1	Staphylococcus aureus	13.6
O=C([C@@H]1CCCN1C(=O)N1CCCN1C(=O)[C@@H]1CCCN1C(=O)N1CCCN1C(=O)[C@@H]1CCCN1C(=O)N1CCCN1C(=O)[C@@H]1CCCN1C(=O)N1CCCN1C(=O)[C@@H]1CCCN1C(=O)N1CCCN1C(=O)[C@@H]1CCCN1C(=O)N1CCCN1C(=O)[C@@H]1CCCN1C(=O)N1CCCN1C(=O)[C@@H]1CCCN1)N1CCCN1	Staphylococcus aureus	22.8
O=CN1CCCN1C(=O)N1CCC[C@H]1C(=O)N1CCCN1C(=O)N1CCC[C@H]1C(=O)N1CCCN1C(=O)N1CCC[C@H]1C(=O)N1CCCN1C(=O)N1CCC[C@H]1C(=O)N1CCCN1C(=O)N1CCC[C@H]1C(=O)N1CCCN1C(=O)N1CCC[C@H]1C(=O)N1CCCN1C(=O)N1CCC[C@H]1C(=O)NCCO	Staphylococcus aureus	13.7
CC(C)(C)OC(=O)[C@@H]1CCCN1C(=O)N1CCCN1C(=O)[C@@H]1CCCN1C(=O)N1CCCN1C(=O)[C@@H]1CCCN1C(=O)N1CCCN1C(=O)[C@@H]1CCCN1C(=O)N1CCCN1C(=O)[C@@H]1CCCN1C(=O)N1CCCN1C(=O)[C@@H]1CCCN1C(=O)N1CCCN1C(=O)[C@@H]1CCCN1C(=O)N1CCCN1C(=O)[C@@H]1CCCN1C(=O)N1CCCN1	Staphylococcus aureus	20.7
O=C(O)[C@@H]1CCCN1C(=O)N1CCCN1C(=O)[C@@H]1CCCN1C(=O)N1CCCN1C(=O)[C@@H]1CCCN1C(=O)N1CCCN1C(=O)[C@@H]1CCCN1C(=O)N1CCCN1C(=O)[C@@H]1CCCN1C(=O)N1CCCN1C(=O)[C@@H]1CCCN1C(=O)N1CCCN1C(=O)[C@@H]1CCCN1C(=O)N1CCCN1C(=O)[C@@H]1CCCN1C(=O)N1CCCN1C(=O)OCc1ccccc1	Staphylococcus aureus	1.14
Cl.O=C(OCc1ccccc1)N1CCCN1C(=O)[C@@H]1CCCN1C(=O)N1CCCN1C(=O)[C@@H]1CCCN1C(=O)N1CCCN1C(=O)[C@@H]1CCCN1C(=O)N1CCCN1C(=O)[C@@H]1CCCN1	Staphylococcus aureus	23.8

Origin of values: ChEMBL document CHEMBL4196059
